Source of measurements: the RNAGym collection of RNA variant scans (doi:10.1126/science.aae0568)

B1: tRNA (parent)
chain: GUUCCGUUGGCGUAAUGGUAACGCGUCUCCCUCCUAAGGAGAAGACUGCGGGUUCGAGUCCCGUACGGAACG

# Variants of: B1
# method.summary: yeast fitness relative to wild type (ratio to wild type); higher = fitter; tRNA-Arg(CCU), competitive growth, 37 C, YPD
Variants at the floor of the assay were thinned out.
measured.property: yeast fitness

// solved cases for yeast fitness follow
>  <ordered.residues>
GUACCGUUGGCGUAAUGGUACCGCUUCUCCCUCCUAAGGAGACGACUGCGGGUUCGAGUCAUGUACGGAACG [U3A A21C G25U A43C C61A C62U]

>  <result>
0.592

$$$$
>  <ordered.residues>
GUUCCGUUGGCGUAAUGGUAACGCGUCUCCCUCCCACGGAGAAGACUGCGGGUUAGAGUGCCCUACGGAACG [U35C A37C C55A C60G G63C]

>  <result>
≤ 0.5

$$$$
>  <ordered.residues>
GUUCCGUUGGCGUAAUGGUAACGCGUCCCCCUCCUAAGGAGAAGACUGCGGGUUCGGGUCCCGUACGGAACG [U28C A57G]

>  <result>
0.896

$$$$

Quick one: yeast fitness for GUUCCGUUGGGGUCAUGGUAACGCGUCUCCCUCCUAAGGAGUAGACUGCGCGUUCGAGUUCCGUACGGAACG [C11G A14C A42U G51C C60U] ?
≤ 0.5

Can you check GUUCCGUUGGAGUAAUGGUUAUGCGUCUCCCUCCUAAGGAGAAGACUGCGGGUUCGAGUCCCGUACCGAACG [C11A A20U C22U G67C] next?
≤ 0.5

Can you check GUUCCGUUGGCGUAAUGGUAACGCGUCGCCCUACUAAGGAGAAGCCUGCGGGUUCGAGUCCCGUACGGAACG [U28G C33A A45C] next?
≤ 0.5

Can you check GUUCCGUUGGCGUAAUGGCAAGGCGUCUCCCUCCUAAGGAGAAGACUGCGGGUUCGAGUCCCGUACGGAACG [U19C C22G] next?
0.978

Can you check GUUCCGUUGGCGUAAUGGUAACGCGUCUCCCCCCUAAGGAGAAGACUGCGGGUUUGAGUCCCGUACGGAACG [U32C C55U] next?
0.651
